Tested on: CD19 CAR T cells
protocol_text: CAR T cell cytokine production (Luminex) under CD19 K562, KIP-1 or CD2/3/28 stimulation
condition_info: Homo sapiens, T-cell, 72 h, read-out: Suppression of cytokine production, Perforin (IC50), CD3/CD28 stimulation, 72 h
Answer each item with its documented pIC50.
Quick note: pIC50 means taking -log10 of the concentration in moles per liter.

So the reported pIC50 for N#CCC1(n2cc(-c3ncnc4[nH]ccc34)cn2)CN(C2CCN(C(=O)c3ccnc(C(F)(F)F)c3F)CC2)C1 , on CD19 CAR T cells, turned out to be 5.80

So the reported pIC50 for O=C(Nc1nc2cccc(-c3ccc(CN4CCS(=O)(=O)CC4)cc3)n2n1)C1CC1 , on CD19 CAR T cells, turned out to be 5.26

====

Answer each item with its documented Mean tumor cell death (%).
System: Nalm-6 luc
protocol_text: CAR-T cell killing assay (luciferase viability of tumor cells)
condition_info: E:T ratio 1:1; dose 10 nM
Express your answer in %, writing the number without its unit.

The molecule C[C@@H]1CCN(C(=O)CC#N)C[C@@H]1N(C)c1ncnc2[nH]ccc12 [tofacitinib] showed Mean tumor cell death (%) equal to 98.6

The molecule CC[C@@H]1CN(C(=O)NCC(F)(F)F)C[C@@H]1c1cnc2cnc3[nH]ccc3n12 [upadacitinib] showed Mean tumor cell death (%) equal to 96.9

The molecule CCS(=O)(=O)N1CC(CC#N)(n2cc(-c3ncnc4[nH]ccc34)cn2)C1 [baricitinib] showed Mean tumor cell death (%) equal to 97.9

The molecule C[C@@H]1C[C@H]2[C@@H]3CCC4=CC(=O)C=C[C@]4(C)[C@@]3(F)[C@@H](O)C[C@]2(C)[C@@]1(O)C(=O)CO [dexamethasone] showed Mean tumor cell death (%) equal to 98.09

====

System: phospho-STAT panel (pSTAT3/4/5), CD3+ T cells
protocol_text: phospho-STAT induction by IL-6, MesoScale Discovery phospho-STAT panel
Assay type: cell-based, human
condition_info: lower dose titration, CD3+ T cells, IL-6 + drug 6.25 nM; MSD signal (No stim. 281, IL-6 alone 3624)
Answer each item with its documented pSTAT4.
Just the number, please.

So the reported pSTAT4 for CCS(=O)(=O)N1CC(CC#N)(n2cc(-c3ncnc4[nH]ccc34)cn2)C1 , on phospho-STAT panel (pSTAT3/4/5), CD3+ T cells, turned out to be 2801

So the reported pSTAT4 for O=C(Nc1nc2cccc(-c3ccc(CN4CCS(=O)(=O)CC4)cc3)n2n1)C1CC1 , on phospho-STAT panel (pSTAT3/4/5), CD3+ T cells, turned out to be 4324

So the reported pSTAT4 for C[C@@H]1CCN(C(=O)CC#N)C[C@@H]1N(C)c1ncnc2[nH]ccc12 , on phospho-STAT panel (pSTAT3/4/5), CD3+ T cells, turned out to be 3455

So the reported pSTAT4 for CC[C@@H]1CN(C(=O)NCC(F)(F)F)C[C@@H]1c1cnc2cnc3[nH]ccc3n12 , on phospho-STAT panel (pSTAT3/4/5), CD3+ T cells, turned out to be 2797

====

protocol_text: in vitro
condition_info: human, CAR-T cells
quantity_measured: viability at 4 day, 5000 nM
Don't forget the unit after the number, please.

The molecule C[C@H]1C[C@@H]2[C@H]([C@@H](O)C[C@@]3(C)[C@H]2CC[C@]3(O)C(=O)CO)[C@@]2(C)C=CC(=O)C=C12 [methylprednisolone] showed viability at 4 day, 5000 nM equal to 49.4%

The reported numbers originate from patent US12252701B2.
